test system: Rattus norvegicus; experiment: Hypotensive activity in normotensive Wistar rat assessed as decrease in diastolic blood pressure at 2.5 to 10 mg/kg, iv after 1 min measured up to 60 mins; type: organism-based, Artery; design: dose 2.5-10 mg/kg, route intravenous; details: in vivo
quantity_measured: Activity

>>> result("COC(=O)C(C)N1C(=O)N(CC(O)CN2CCN(c3ccccc3OC)CC2)C(c2ccccc2)(c2ccccc2)C1=O.Cl (racemic)")
"Non-toxic"
>>> result("CCOc1ccccc1N1CCN(CC(O)CN2C(=O)N(C)C(=O)C2(c2ccccc2)c2ccccc2)CC1.Cl (racemic)")
"Toxic"
>>> result("COC(=O)CN1C(=O)N(CC(O)CN2CCN(c3ccccc3F)CC2)C(c2ccccc2)(c2ccccc2)C1=O.Cl (racemic)")
"Non-toxic"
>>> result("CN1C(=O)N(CC(O)CN2CCN(c3ccccc3)CC2)C(c2ccccc2)(c2ccccc2)C1=O.Cl (racemic)")
"Non-toxic"

###

Reported values of pKi for individual entries
molecular target: Adrenergic receptor alpha-1 (Rattus norvegicus, UniProt P15823+P23944+P43140); test: Displacement of [3H]prazosin from alpha1 adrenoceptor in rat cerebral cortex after 30 mins by microbeta scintillation counting; assay type: tissue-based
quantity_measured: pKi

>>> result("COc1ccccc1N1CCN(CCCCN2C(=O)N(C)C(=O)C2(c2ccccc2)c2ccccc2)CC1.Cl")
8.33
>>> result("COC(=O)CN1C(=O)N(CCCCN2CCN(c3ccccc3OC)CC2)C(c2ccccc2)(c2ccccc2)C1=O.Cl")
7.6
>>> result("COc1ccccc1N1CCN(CCCN2C(=O)N(C)C(=O)C2(c2ccccc2)c2ccccc2)CC1.Cl")
6.38
>>> result("COC(=O)CN1C(=O)N(CC(O)CN2CCN(c3ccccc3F)CC2)C(c2ccccc2)(c2ccccc2)C1=O.Cl (racemic)")
5.48
>>> result("COC(=O)CN1C(=O)N(CC(O)CN2CCN(c3ccccc3Cl)CC2)C(c2ccccc2)(c2ccccc2)C1=O.Cl (racemic)")
6.45

###

test system: Rattus norvegicus; assay: Cardiotoxicity in Wistar rat assessed as effect on P-Q interval at 10 mg/kg, iv after 1 min; assay type: toxicity, organism-based; set-up: dose 10 mg/kg, route intravenous; conditions: in vivo
Below, each entry is listed with its recorded Activity.
quantity_measured: Activity (ms)

>>> result("CCOc1ccccc1N1CCN(CC(O)CN2C(=O)N(C)C(=O)C2(c2ccccc2)c2ccccc2)CC1.Cl (racemic)")
75
>>> result("CN1C(=O)N(CC(O)CN2CCN(c3ccccc3)CC2)C(c2ccccc2)(c2ccccc2)C1=O.Cl (racemic)")
66
>>> result("CN1C(=O)N(CC(O)CN2CCN(c3ccccc3Cl)CC2)C(c2ccccc2)(c2ccccc2)C1=O.Cl (racemic)")
60
>>> result("COC(=O)CN1C(=O)N(CC(O)CN2CCN(c3ccccc3OC)CC2)C(c2ccccc2)(c2ccccc2)C1=O.Cl (racemic)")
64

###

target: Adrenergic receptor alpha-1 (Rattus norvegicus, UniProt P15823+P23944+P43140); assay: Displacement of [3H]prazosin from alpha1 adrenoceptor in rat cerebral cortex after 30 mins by microbeta scintillation counting; type: tissue-based
quantity_measured: log10 of Ki (log10 of the value in nM)

>>> result("COC(=O)CN1C(=O)N(CC(O)CN2CCN(c3ccccc3F)CC2)C(c2ccccc2)(c2ccccc2)C1=O.Cl (racemic)")
3.52
>>> result("COC(=O)CN1C(=O)N(CC(O)CN2CCN(c3ccccc3Cl)CC2)C(c2ccccc2)(c2ccccc2)C1=O.Cl (racemic)")
2.55
>>> result("CN1C(=O)N(CC(O)CN2CCN(c3ccccc3F)CC2)C(c2ccccc2)(c2ccccc2)C1=O.Cl (racemic)")
2.75
>>> result("CN1C(=O)N(CC(O)CN2CCN(c3ccccc3)CC2)C(c2ccccc2)(c2ccccc2)C1=O.Cl (racemic)")
2.73
>>> result("CN1C(=O)N(CC(O)CN2CCN(c3ccccc3Cl)CC2)C(c2ccccc2)(c2ccccc2)C1=O.Cl (racemic)")
2.68
>>> result("COC(=O)CN1C(=O)N(CCCCN2CCN(c3ccccc3OC)CC2)C(c2ccccc2)(c2ccccc2)C1=O.Cl")
1.40
>>> result("COc1ccccc1N1CCN(CCCN2C(=O)N(C)C(=O)C2(c2ccccc2)c2ccccc2)CC1.Cl")
2.62
>>> result("CCOc1ccccc1N1CCN(CCCN2C(=O)N(C(C)C(=O)OC)C(=O)C2(c2ccccc2)c2ccccc2)CC1.Cl (centres undefined)")
2.60
>>> result("COc1ccccc1N1CCN(CCCCN2C(=O)N(C)C(=O)C2(c2ccccc2)c2ccccc2)CC1.Cl")
0.67
